Values compiled from patent US20120028917A1.

system: U226-B1; assay: ≧4N DNA content assay (flow cytometry); type: cell-based, human; details: U226-B1, BCRP −; 24 hours
Measured metric: EC50 (nM)
Please state the figure in nM; there is no need to write the unit.

Task: Could you share which EC50 value was measured for Cc1cc(Nc2cc(N3CCN(C)CC3)nc(Sc3ccc(NC(=O)C4CC4)cc3)n2)n[nH]1 ?
Output: 46

====

system: MDA-MB-231 parental; assay: p-histone H3 fluorescence-based cell imaging assay; parameters: species or system human; details: P-gp −
Measured metric: pIC50
Formally, pIC50 is defined as -log10 of the concentration c, with c in mol/L.

Task: Could you share which pIC50 value was measured for Cc1cc(Nc2cc(N3CCN(C)CC3)nc(Sc3ccc(NC(=O)C4CC4)cc3)n2)n[nH]1 ?
Output: 7.37

====

tested on: SK-MEL-2; assay: Antiproliferative assay (ArrayScan VTi); type: cell-based; settings: Homo sapiens; SK-MEL-2 (Skin); 24 h treatment, then 48 h without compound
Measured metric: EC50 (nM)
Please state the figure in nM; there is no need to write the unit.

Task: Could you share which EC50 value was measured for Cc1csc(-c2nnc(Nc3ccc(Oc4ncccc4-c4ccnc(N)n4)cc3)c3ccccc23)c1 [AMG 900] ?
Output: 2
